target-entity: Variant4 ND (Burkholderia rhizoxinica) (UniProt E5AV36)
assay-name: ITC
condition-info: FA and ITC: 25 mM HEPES pH 8, 150 mM NaCl, 0.2 mM TCEP, 298 K, SPR: HBS-EP+ (10 mM HEPES pH 7.4, 150 mM NaCl, 3 mM EDTA, 0.05% P20)
reported-metric: pKd
The quantity pKd is defined as the negative base-10 logarithm of the molar concentration.

[in] Which value of pKd has been reported for TTGTATATATTTAAGCACTTATA (double strand) [V4 target] in the records?
[out] 7.85

###

target-entity: BurrH Variant2 (CAPNS1) (Burkholderia rhizoxinica) (UniProt E5AV36)
assay-name: ITC
condition-info: FA and ITC: 25 mM HEPES pH 8, 150 mM NaCl, 0.2 mM TCEP, 298 K, SPR: HBS-EP+ (10 mM HEPES pH 7.4, 150 mM NaCl, 3 mM EDTA, 0.05% P20)
reported-metric: Kd (nM)
Could you give me the number in nM? Just the number is fine.

[in] Which value of Kd has been reported for TTTTGTCCGGGAACCCAGAGCTA (double strand) [V2 target] in the records?
[out] 149

###

target-entity: BurrH Variant4 (RAG1) (Burkholderia rhizoxinica) (UniProt E5AV36)
assay-name: ITC
condition-info: FA and ITC: 25 mM HEPES pH 8, 150 mM NaCl, 0.2 mM TCEP, 298 K, SPR: HBS-EP+ (10 mM HEPES pH 7.4, 150 mM NaCl, 3 mM EDTA, 0.05% P20)
reported-metric: Kd

[in] Which value of Kd has been reported for TTGTATATATTTAAGCACTTATA (double strand) [V4 target] in the records?
[out] 12 nM
